What koff was measured for each of the following?
target: T1, His-tagged PD-L1 ECD protein (ACROBiosystems) (human, UniProt Q9NZQ7 19-238); experiment: SPR, supernatant IgG captured, PD-L1-His analyte
T1 construct: Bought protein; also called PD-L1-His; PD-L1/His; not shown: His tag
T1 sequence (Q9NZQ7 19-238): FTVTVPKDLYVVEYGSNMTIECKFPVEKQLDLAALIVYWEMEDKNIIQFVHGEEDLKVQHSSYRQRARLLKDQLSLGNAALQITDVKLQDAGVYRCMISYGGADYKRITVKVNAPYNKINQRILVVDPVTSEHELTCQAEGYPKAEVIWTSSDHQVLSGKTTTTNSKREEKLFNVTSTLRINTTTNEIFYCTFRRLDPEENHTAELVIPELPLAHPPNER
Please answer using a numeric value trailed by its unit.

Give the value of koff reported for the following: 53C1_VH-VL.M1 (antibody, human IgG1, kappa, N297A, V domains shown, Chimeric mutant, VL K24R in the entry; human IgG1 effector-less Fc, kappa) VH: QVQLQQSGNELARPGASVRLSCKASGYIFTGYGITWVRQRPGQGLEWIGEIFPRRVNTYYSEKFKGRATLTADISSSTAYMELRSLTSEDSAVYFCARDYDPYFALDYWGQGTSVTVSS VL: DIVMTQSHKFMSTSVGDRVSITCRASQDVSTAVDWYQQKPGQSPKLLIYSASYRYTGVPDRFTGSGSGTAFTFTISGEQAEDLAVYYCQQHYSIPFTFGGGTKLEIKR 0.0002 s⁻¹

Give the value of koff reported for the following: 53C1_chimeric (antibody, human IgG1, kappa, N297A, V domains shown, Human IgG1 with effector-less Fc mutations, human kappa; also called chimeric 53C1F3D4) VH: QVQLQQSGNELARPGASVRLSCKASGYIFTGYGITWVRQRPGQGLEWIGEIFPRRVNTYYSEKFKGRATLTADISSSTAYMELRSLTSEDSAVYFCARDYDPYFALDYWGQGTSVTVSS VL: DIVMTQSHKFMSTSVGDRVSITCKASQDVSTAVDWYQQKPGQSPKLLIYSASYRYTGVPDRFTGSGSGTAFTFTISGEQAEDLAVYYCQQHYSIPFTFGGGTKLEIKR 0.00019 s⁻¹

Give the value of koff reported for the following: 53C1_VH.M1-VL (antibody, human IgG1, kappa, N297A, V domains shown, Chimeric mutant, VH N57S in the entry; human IgG1 effector-less Fc, kappa) VH: QVQLQQSGNELARPGASVRLSCKASGYIFTGYGITWVRQRPGQGLEWIGEIFPRRVSTYYSEKFKGRATLTADISSSTAYMELRSLTSEDSAVYFCARDYDPYFALDYWGQGTSVTVSS VL: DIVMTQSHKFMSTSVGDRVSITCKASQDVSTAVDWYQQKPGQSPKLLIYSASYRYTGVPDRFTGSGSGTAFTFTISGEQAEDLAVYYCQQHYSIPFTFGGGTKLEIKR 0.00021 s⁻¹

Give the value of koff reported for the following: 53C1_VH.M2-VL (antibody, human IgG1, kappa, N297A, V domains shown, Chimeric mutant, VH N57A in the entry; human IgG1 effector-less Fc, kappa) VH: QVQLQQSGNELARPGASVRLSCKASGYIFTGYGITWVRQRPGQGLEWIGEIFPRRVATYYSEKFKGRATLTADISSSTAYMELRSLTSEDSAVYFCARDYDPYFALDYWGQGTSVTVSS VL: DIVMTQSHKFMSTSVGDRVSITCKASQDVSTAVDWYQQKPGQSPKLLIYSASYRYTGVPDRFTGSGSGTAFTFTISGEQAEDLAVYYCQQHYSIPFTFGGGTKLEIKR 0.00016 s⁻¹

Give the value of koff reported for the following: 53C1_VH.M1-VL.M1 (antibody, human IgG1, kappa, N297A, V domains shown, Chimeric mutant (VH N57S, VL K24R in the entries); human IgG1 effector-less Fc, kappa) VH: QVQLQQSGNELARPGASVRLSCKASGYIFTGYGITWVRQRPGQGLEWIGEIFPRRVSTYYSEKFKGRATLTADISSSTAYMELRSLTSEDSAVYFCARDYDPYFALDYWGQGTSVTVSS VL: DIVMTQSHKFMSTSVGDRVSITCRASQDVSTAVDWYQQKPGQSPKLLIYSASYRYTGVPDRFTGSGSGTAFTFTISGEQAEDLAVYYCQQHYSIPFTFGGGTKLEIKR 0.0002 s⁻¹
